# Assay Protocol: Plasmodium falciparum growth inhibition, primary screen, strain 3D7, DAPI fluorescence, 100 nL (AID 1184);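 also: parasites grown inside human red blood cells in medium with human serum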
# Condition Info: P. falciparum 3D7 growth, 3 d, higher = more signal
Quantity Kind: z-score

{"Compound": "C=CCC(OC(C)=O)[C@@H]1[C@@H](N(Cc2cc3ccccc3o2)C(=O)c2ccc(C)cc2)c2cc(OCCCO)ccc2N1C(=O)Cc1ccc(OC)cc1 (some centres undefined)", "Assay Value": -0.901}
{"Compound": "C[N+](C)(C)CCCCCCNC(=O)[C@H]1C[C@H]2C(=O)N[C@@H](Cc3ccccc3)C(=O)N2[C@H]1c1ccc(O)cc1", "Assay Value": 0.0933}
{"Compound": "COc1ccc(CCNC(=O)[C@@H]2c3ccccc3C(=O)N(Cc3cc(C(F)(F)F)cc(C(F)(F)F)c3)[C@H]2c2ccc(CO)cc2)cc1", "Assay Value": -1.17}

Turning to the following compound.
Query :: Dear colleague, I am looking for the recorded z-score of the following compound: C=C[C@@H](COC(C)=O)N(C(=O)OC(C)(C)C)S(=O)(=O)c1ccc(Br)cc1
Result :: 0.573

====

# Assay Protocol: HepG2 cell viability effects, profiling panel, calcein-AM fluorescence, 48 h, basal (AID 1164); also: test concentration not given here
# Condition Info: higher = more signal
Quantity Kind: z-score
API note: the answer field is a bare number with no unit suffix.

{"Compound": "COCCOC(=O)N1C(=O)[C@@]2(c3cc(C#CC4=CCCCC4)ccc31)[C@H](c1ccccc1OCCO)N1[C@H](c3ccccc3)[C@H](c3ccccc3)OC(=O)[C@H]1[C@@H]2C(=O)Nc1nc2ccccc2s1", "z-score": 0.416}
{"Compound": "COc1ccccc1CN1C(=O)c2ccccc2[C@@]2(Cc3ccccc3N(CC(F)(F)F)C2=O)[C@@H]1c1ccc(CO)cc1", "z-score": 0.162}
{"Compound": "CCOC(=O)C[C@H]1[C@H](OC(=O)c2cc3ccccc3oc2=O)[C@@H](NC(=O)c2ccc(-c3ccccc3)cc2)c2cc(OCCCO)ccc2N1C(=O)c1ccc2ccccc2n1", "z-score": 1.25}
{"Compound": "CC(=O)c1ccc(C(O)C2C=CC3C(=O)N(c4ccccc4)C(=O)C3N2Nc2ccc(C#N)cc2)cc1 (stereo unspecified)", "z-score": -0.477}
{"Compound": "CCOC(=O)C[C@H]1[C@H](OC(=O)c2cc3ccccc3oc2=O)[C@@H](NC(=O)Cc2ccc(OC)cc2)c2cc(OCCCO)ccc2N1C(=O)c1ccc2ccccc2n1", "z-score": 0.493}

Now look at this entry.
Query :: z-score for NCCCCCCNC(=O)[C@@H]1C[C@@H]2C(=O)N[C@@H](CCCCN)C(=O)N2[C@@H]1c1cccc(OCCO)c1 ?
Result :: 0.514

====

# Assay Protocol: compound binding in COS7 lysate, probe aLAP1, primary screen, cell lysate, small-molecule microarray (AID 1124);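 also: lysate comes from COS7 cells expressing LAP1 and is applied at 0.3 µg/mL; score merges spot fluorescence near 667 nm with signal-to-noise over triplicate slides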
# Condition Info: probe aLAP1, fluorescence, higher = more signal
Quantity Kind: composite z-score
Just the number, please, no unit after it.

Query :: GET /values?readout=composite z-score&item= C=C(/C(=C/C[C@H](OC(=O)c1ccncc1)c1ccc(CO)o1)c1cc(C(=O)OC)ccc1OC)C(C)C
Result :: 0.285

Query :: For the compound shown here, CC1=C([C@H](O)CCc2ccccc2)[C@H](CO)[C@@H]2C(=O)N(C)C(=O)[C@@H]2C1 , give the reported composite z-score.
Result :: 0.244

Query :: Bench note: what composite z-score did COC(=O)[C@@]1(Cc2ccccc2)[C@@H]2C(=CC(=O)[C@H]2CC(=O)C(=O)N(C)C)CN1C(=O)c1ccccc1 show?
Result :: 0.931

Query :: Can you look up the measured composite z-score of [N-]=[N+]=NCc1ccccc1[C@H]1OC(c2ccc(OCCCO)cc2)=N[C@@]1(CCS(=O)(=O)c1ccccc1)C(=O)NCC(O)CO (some centres undefined) for me?
Result :: 1.04
